assay: Metabolic stability in pooled human plasma at 37° C.; type: in vitro ADME; conditions: 0.1 μM

compound: CCCCCCCC/C=C/CCCCCCCC(=O)OC[C@H]1O[C@@H](n2cnc(N)nc2=O)[C@H](O)[C@@H]1O [CP, 5-azacytidine 5′-elaidate]
half-life at 0.1 μM: 2.68 h

====

system: 5637; experiment: WST-1 cytotoxicity assay; type: cell-based; settings: 5637, 24 hour treatment
IC50 values, listed per item

molecule: Nc1ncn([C@@H]2O[C@H](CO)[C@@H](O)[C@H]2O)c(=O)n1 [5-AzaC, 5-azacytidine, reference compound]
IC50 (µM): 24.6
--
molecule: CCCCCCCC/C=C/CCCCCCCC(=O)OC[C@H]1O[C@@H](n2cnc(N)nc2=O)[C@H](O)[C@@H]1O [CP, 5-azacytidine 5′-elaidate]
IC50 (µM): 9.39
